Recorded LogP app for the following molecules
Test system: Caco-2
ASSAY_INFO: Permeability from apical to basolateral side of the Caco-2 cell membrane
Assay type: ADME, cell-based
RUN_CONDITIONS: human
Give the figure by itself; no unit, no explanation.

Known LogP app results, listed for orientation:
CCOP(=S)(OCC)Oc1cc(C)nc(C(C)C)n1 [DIMPYLATE] ... -4.32
CC(C)OP(=O)(OC(C)C)SCc1ccccc1 [IPROBENFOS] ... -4.28
COc1cccc(C(=O)NN(C(=O)c2cc(C)cc(C)c2)C(C)(C)C)c1C [METHOXYFENOZIDE] ... -4.33
CC(C)(C)N(NC(=O)c1ccccc1)C(=O)c1ccccc1 [RH-5849] ... -4.34

Return the recorded LogP app value; entry: CCNc1nc(Cl)nc(NC(C)C)n1 [ATRAZINE]
-4.39

Return the recorded LogP app value; entry: c1ccc(Nc2ccccc2)cc1 [DIPHENYLAMINE]
-4.4

Return the recorded LogP app value; entry: CCc1ccc(C(=O)NN(C(=O)c2cc(C)cc(C)c2)C(C)(C)C)cc1 [TEBUFENOZIDE]
-4.44

###

Recorded LogP app for the following molecules
ASSAY_INFO: Permeability coefficient through artificial membrane in presence of unstirred water layer by PAMPA
Give the figure by itself; no unit, no explanation.

Cc1cc(C)cc(C(=O)N(NC(=O)c2ccc3c(c2C)CCCO3)C(C)(C)C)c1 [CHROMAFENOZIDE] ... -4.78
C[C@@H]1C[C@H]2[C@@H]3CCC4=CC(=O)C=C[C@]4(C)[C@@]3(F)[C@@H](O)C[C@]2(C)[C@@]1(O)C(=O)CO ... -5.37
C=CCc1ccccc1OCC(O)CNC(C)C (centres undefined) ... -4.7

Return the recorded LogP app value; entry: `CNC(=C[N+](=O)[O-])NCCSCc1ccc(CN(C)C)o1`
-6.05

###

ASSAY_INFO: Permeability coefficient through artificial membrane in presence of stirred water layer
RUN_CONDITIONS: PAMPA
Recorded Papp for the following molecules

Known Papp results, listed for orientation:
O=[N+]([O-])NC1=NCCN1Cc1ccc(Cl)nc1 ... 5.21 ×10⁻⁶ cm/s
Nc1ccccc1Cl ... 246 ×10⁻⁶ cm/s
CCOP(=S)(OCC)Oc1cc(C)nc(C(C)C)n1 [DIMPYLATE] ... 31.1 ×10⁻⁶ cm/s
COP1(=S)OCc2ccccc2O1 (centres undefined) ... 43.9 ×10⁻⁶ cm/s
CC(=O)Nc1ccc(O)cc1 ... 2.22 ×10⁻⁶ cm/s

Return the recorded Papp value; entry: `O=C(O)c1ccccc1Nc1ccccc1`
24.3 ×10⁻⁶ cm/s

Return the recorded Papp value; entry: C=CCc1ccccc1OCC(O)CNC(C)C (centres undefined)
61.4 ×10⁻⁶ cm/s

Return the recorded Papp value; entry: `C[C@@H]1C[C@H]2[C@@H]3CCC4=CC(=O)C=C[C@]4(C)[C@@]3(F)[C@@H](O)C[C@]2(C)[C@@]1(O)C(=O)CO`
11.3 ×10⁻⁶ cm/s

Return the recorded Papp value; entry: `CCc1ccc(C)nc1`
12.9 ×10⁻⁶ cm/s

Return the recorded Papp value; entry: `Nc1cccc([N+](=O)[O-])c1`
196 ×10⁻⁶ cm/s

Return the recorded Papp value; entry: `Nc1ccc(Cl)cc1`
258 ×10⁻⁶ cm/s

Return the recorded Papp value; entry: O=[N+]([O-])c1ccccc1O [NITROPHENOLATE]
216 ×10⁻⁶ cm/s
